- test.target: cellular kallikrein activity (Homo sapiens (Human), UniProt P03952)
- Sequence (P03952 391-638): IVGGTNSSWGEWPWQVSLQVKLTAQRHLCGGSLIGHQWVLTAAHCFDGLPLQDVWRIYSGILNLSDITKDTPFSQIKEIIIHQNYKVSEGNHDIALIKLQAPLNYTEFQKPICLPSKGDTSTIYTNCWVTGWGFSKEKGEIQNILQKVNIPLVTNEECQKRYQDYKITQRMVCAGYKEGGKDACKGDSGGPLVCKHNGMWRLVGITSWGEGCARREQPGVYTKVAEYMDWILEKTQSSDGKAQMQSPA
- Sequence (P03952 20-390 partner): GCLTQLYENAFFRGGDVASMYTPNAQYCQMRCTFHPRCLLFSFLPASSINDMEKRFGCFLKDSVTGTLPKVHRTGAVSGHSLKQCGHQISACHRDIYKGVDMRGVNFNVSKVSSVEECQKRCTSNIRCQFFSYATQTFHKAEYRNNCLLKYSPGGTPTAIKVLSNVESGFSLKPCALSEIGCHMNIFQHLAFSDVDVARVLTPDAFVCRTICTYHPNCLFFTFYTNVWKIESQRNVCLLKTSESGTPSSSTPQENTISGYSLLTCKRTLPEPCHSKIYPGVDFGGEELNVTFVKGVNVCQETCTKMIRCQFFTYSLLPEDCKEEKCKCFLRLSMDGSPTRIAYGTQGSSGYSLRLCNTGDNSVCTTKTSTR
- method.summary: In vitro cellular assay (contact assay): kallikrein activity in ellagic acid-activated human plasma, Z-FR-2-AMC substrate
- details: human plasma activated with ellagic acid, 37° C.
The entries below come with measured EC50 values attached.
readout.label: EC50

molecule="O=C(NCc1cnc2[nH]cc(Cl)c2c1)c1ccnc(Cc2ccc3ncc(C4CC4)cc3c2)c1 [Example 246]" reading="100 to 1000 nM"
molecule="Cc1cc(N)nc(C)c1CNC(=O)c1cc(CC#N)nc(Cc2ccc3ncc(Cl)cc3c2)c1 [Example 213]" reading="< 100 nM"
molecule="O=C(NCc1cc2c(Cl)c[nH]c2cc1F)c1ccnc(Cc2ccc3ncc(C(F)(F)F)cc3c2)c1 [Example 230]" reading="100 to 1000 nM"
molecule="Cc1cc(N)nc(C)c1CNC(=O)c1ccnc(Cc2cc3cc(Cl)cnc3cn2)c1 [Example 148]" reading="< 100 nM"
molecule="Cc1cc(N)nc(C)c1CNC(=O)c1ccnc(Cc2cc(C(=O)O)c3ncc(Cl)cc3c2)c1 [Example 93]" reading="< 100 nM"
molecule="Cc1cc(N)nc(C)c1CNC(=O)c1ccnc(Cc2cc(N)c3ncc(Cl)cc3c2)c1 [Example 217]" reading="< 100 nM"
molecule="Cc1cc(N)nc(C)c1CNC(=O)c1cc(CN)nc(Cc2ccc3ncc(Cl)cc3c2)c1 [Example 211]" reading="< 100 nM"
molecule="Cc1cc(N)nc(C)c1CNC(=O)c1ccnc(Cc2ccc3c(cc(Cl)c[n+]3[O-])c2)c1 [Example 99]" reading="< 100 nM"
molecule="Cc1cc2c(N)nccc2cc1CNC(=O)c1ccnc(Cc2ccc3ncc(Cl)cc3c2)c1 [Example 181]" reading="< 100 nM"
molecule="Nc1nccc2cc(CNC(=O)c3ccnc(Cc4ccc5ncc(Cl)cc5c4)c3)c(F)cc12 [Example 180]" reading="100 to 1000 nM"
molecule="O=C(NCc1ccc2[nH]cc(Cl)c2c1F)c1ccnc(Cc2ccc3ncc(C(F)(F)F)cc3c2)c1 [Example 234]" reading="100 to 1000 nM"
molecule="CC(C)(O)c1cc(Cc2cc(C(=O)NCc3ccc4c(N)nccc4c3)ccn2)cc2cc(Cl)cnc12 [Example 224]" reading="< 100 nM"
molecule="Cc1nc(N)ccc1CNC(=O)c1ccnc(Cc2cc(CO)c3ncc(Cl)cc3c2)c1 [Example 97]" reading="< 100 nM"
molecule="Nc1nccc2c(F)c(CNC(=O)c3ccnc(Cc4ccc5ncc(Cl)cc5c4)c3)ccc12 [Example 178]" reading="< 100 nM"
molecule="Cc1cc2c(N)nccc2cc1CNC(=O)c1ccnc(Cc2ccc3ncc(C(F)(F)F)cc3c2)c1 [Example 183]" reading="< 100 nM"
molecule="Nc1nccc2cc(CNC(=O)c3ccnc(Cc4ccc5ncc(C6CC6)cc5c4)c3)ccc12 [Example 247]" reading="< 100 nM"
molecule="Cc1c(CNC(=O)c2ccnc(Cc3ccc4ncc(Cl)cc4c3)c2)ccc2c(N)nccc12 [Example 177]" reading="< 100 nM"
molecule="Nc1nccc2cc(CNC(=O)c3ccnc(Cc4ccc5ncc(C(F)(F)F)cc5c4)c3)ccc12 [Example 232]" reading="< 100 nM"
molecule="Cc1nc(N)ccc1CNC(=O)c1ccnc(Cc2ccc3ncc(C(F)(F)F)cc3c2)c1 [Example 229]" reading="< 100 nM"
molecule="Cc1nc(N)ccc1CNC(=O)c1ccnc(Cc2cc3cc(Cl)cnc3cn2)c1 [Example 149]" reading="< 100 nM"
molecule="Cc1cc(N)nc(C)c1CNC(=O)c1cc(Cc2ccc3ncc(Cl)cc3c2)nc(C(=O)O)c1 [Example 209]" reading="100 to 1000 nM"
molecule="CC(C)(O)c1cc(Cc2cc(C(=O)NCc3cnc4[nH]cc(Cl)c4c3)ccn2)cc2cc(Cl)cnc12 [Example 223]" reading="< 100 nM"
molecule="CC(C)(O)c1cc(Cc2cc(C(=O)NCc3ccc4[nH]cc(Cl)c4c3F)ccn2)cc2cc(Cl)cnc12 [Example 222]" reading="100 to 1000 nM"
molecule="O=C(NCc1cnc2[nH]cc(Cl)c2c1)c1ccnc(Cc2ccc3ncc(C(F)(F)F)cc3c2)c1 [Example 231]" reading="100 to 1000 nM"
molecule="Cc1nc2ccc(Cc3cc(C(=O)NCc4ccc(N)nc4C)ccn3)cc2cc1Cl [Example 239]" reading="100 to 1000 nM"
molecule="Cc1cc(N)nc(C)c1CNC(=O)c1ccnc(Cc2cc3cc(Cl)cn3cn2)c1 [Example 153]" reading="< 100 nM"
molecule="Cc1cc(N)nc(C)c1CNC(=O)c1ccnc(Cc2ccc3ncc(C4CC4)cc3c2)c1 [Example 243]" reading="< 100 nM"
molecule="COc1cnc2ccc(Cc3cc(C(=O)NCc4c(C)cc(N)nc4C)ccn3)cc2c1 [Example 264]" reading="< 100 nM"
molecule="Nc1nc(C(F)(F)F)n2cc(CNC(=O)c3ccnc(Cc4ccc5ncc(Cl)cc5c4)c3)ccc12 [Example 186]" reading="< 100 nM"
molecule="Cc1cc(N)nc(C)c1CNC(=O)c1ccnc(C(C)(O)c2ccc3ncc(Cl)cc3c2)c1 (centres unmarked) [Example 277]" reading="100 to 1000 nM"
molecule="Cc1cc(CN)nc(C)c1CNC(=O)c1ccnc(Cc2ccc3ncc(Cl)cc3c2)c1 [Example 171]" reading="100 to 1000 nM"
molecule="Cc1cnc2c(S(N)(=O)=O)cc(Cc3cc(C(=O)NCc4n[nH]c5ccc(Cl)cc45)ccn3)cc2c1 [Example 288]" reading="100 to 1000 nM"

These data points were gathered from patent US10023557B2.
